Can you tell me Activity for the items I'm about to list?
test system: Botrytis cinerea; test: Antifungal activity against Botryotinia fuckeliana at 50 ug/ml by poisoned food technique; assay type: functional
Answers are plain numbers, in %.

Example entries and their recorded answers appear below.
Cc1cc(C)nc(Nc2ccccc2)n1 [PYRIMETHANIL]: 96.3
COC(=O)Nc1nc2ccccc2[nH]1 [CARBENDAZIM]: 63
COc1ccc(C(=CC(=O)N2CCOCC2)c2ccc(Cl)cc2)cc1OC [DIMETHOMORPH]: 18.5
Cc1cc(OC(=O)c2ccc(Cl)cc2)nc(C(C)C)n1: 33.3

Dear colleague, could you send me Activity for each of the items below? Thanks.
1. COc1ccc(/C(=C\C(=O)N2CCOCC2)c2ccc(F)cc2)cc1OC [FLUMORPH]
2. Cc1cc(OC(=O)c2ccc(F)cc2)nc(C(C)C)n1
3. Cc1cc(OCc2cnc(Cl)s2)nc(C(C)C)n1
4. Cc1cc(Nc2ccc(OC(F)(F)F)cc2)nc(C(C)C)n1
5. Cc1cc(OCc2ccc(Cl)nc2)nc(C(C)C)n1
6. Cc1cc(O)no1 [HYMEXAZOL]
7. Cc1cc(NC2CCCCC2)nc(C(C)C)n1
8. Cc1cc(Nc2ccccc2)nc(C(C)C)n1

7.4
14.8
7.4
25.9
29.6
70.4
3.7
7.4
